- Tested on: UO-31
- METHOD: NCI tumour cell line growth inhibition, 48 h
The source made the active and inactive calls. No stated cut-off is given here; in the data, active = GI50 up to about 1.1 µM and inactive = higher.
Possible outcomes: 1 (yes) (active), 0 (no) (inactive)

In [3]: df
Out[3]:
                                   compound      cat
0  CCc1cccc(C(C)CC)c1NC(=O)CC1C(=O)Nc2ccccc2S1(=O)=O (stereo not given)   0 (no)
1  O=C1C(Br)=CC2(C=C1Br)CCNC1=C2C2=NCCc3c[nH]c(c32)C1=O  1 (yes)
2                     N#Cc1nnn(C2CCCCC2)c1O   0 (no)
3  C[n+]1c2ccccc2c(C(=O)Nc2ccc(S(=O)(=O)Nc3ccnn3-c3ccccc3)cc2)c2ccccc21   0 (no)
4  COc1c(O)c(OC)c2oc(-c3ccc(O)cc3)c(OC)c(=O)c2c1O   0 (no)
5  C[Si](C)(C)/C=C/CN1C(=O)CCC1O (stereo not given)   0 (no)
6     CC12CC3CC(C)(C1)CC(N=[N+]=[N-])(C3)C2   0 (no)
7      CC1=COC2=C(C)C(=O)C(=O)c3c(C)ccc1c32   0 (no)
8  CC(=O)N(C(=O)CC(=O)N1N=C(c2ccccc2)C(/N=N/c2ccccc2[N+](=O)[O-])C1=O)c1ccc(Cl)cc1 (stereo not given)   0 (no)
9   c1ccc(-c2cc(-c3cc(-c4ccccc4)no3)on2)cc1   0 (no)

====

- System: M14
- METHOD: NCI tumour cell line growth inhibition, 48 h
Where a name gives a salt, the structure may show the parent alone. Active and inactive are the calls of the source. Rule as the data show it: active = GI50 up to about 1.1 µM and inactive = higher.
MEASURED_ATTRIBUTE: GI50

>>> print(df.to_string())
                                    molecule  measured_attribute               result
 0      O=c1oc2cc(O)ccc2c2[nH]c3cc(O)ccc3c12                GI50   36.4 µM (inactive)
 1  O=C1c2c(O)cccc2C(C2OC(CO)C(O)C(O)C2O)c2cc(CO)cc(O)c21 (stereo not given)                GI50  > 100 µM (inactive)
 2                 CC1(C)Oc2ccc(Cl)cc2C12CC2                GI50   18.8 µM (inactive)
 3  CCCCCCCCOP(=O)(O)OP(=O)(O)OCC1OC(n2ccc(N)nc2=O)C(O)C1O (stereo not given)                GI50  > 100 µM (inactive)
 4       CC(C)(C)C(=O)Nc1c(C=O)ccc2[nH]cnc12                GI50  > 100 µM (inactive)
 5  CCOP(=O)(OCC)C(c1ccc(F)cc1)N(C(=O)NC(F)(F)F)c1cccc(C(F)(F)F)c1 (stereo not given)                GI50  > 100 µM (inactive)
 6  CC(C)C1=CC2=CC[C@@H]3[C@](C)(CCC[C@@]3(C)C(=O)O)[C@H]2CC1                GI50   67.9 µM (inactive)
 7  O=C(N/C(=C\c1c(O)ccc2ccccc12)c1nc2ccccc2[nH]1)c1ccccc1                GI50  > 100 µM (inactive)
 8  Cc1ccc2[nH]/c(=N/S(=O)(=O)c3cc(C)c(Cl)cc3S)[nH]c2c1                GI50   97.7 µM (inactive)
 9  O=c1[nH]c2cccc([N+](=O)[O-])c2c(=O)n1-c1ccc(Cl)cc1                GI50   10.7 µM (inactive)
10  COC(=O)c1c(C(=O)OC)c2ccccn2c1-c1cc(C)cc2c1C(=O)C=CC2=O                GI50   9.48 µM (inactive)
11  CCCCNC1=C(C(=O)OCC)/C(=N/NC(=O)c2ccccc2O)CO1                GI50   37.2 µM (inactive)
12  O=C(NCCCNCCCNC(=O)c1cc(-c2ccccc2)nc2ccccc12)c1cc(-c2ccccc2)nc2ccccc12                GI50   1.79 µM (inactive)
13  COc1cc2c(cc1OC)C1(c3ccc(Cl)cc3)ON=C(c3ccccc3)N1CS2 (stereo not given)                GI50   73.8 µM (inactive)
14  O=[N+]([O-])c1cc(/C=N\NS(=O)(=O)c2ccc(Cl)cc2)c(O)c([N+](=O)[O-])c1                GI50   32.4 µM (inactive)
15  O=C(O)C(Cc1c[nH]c2ccccc12)N1C(=O)c2ccccc2C1=O (stereo not given)                GI50  > 100 µM (inactive)
16   COC(=O)Nc1nc2cc(NC(=O)c3cccs3)ccc2[nH]1                GI50   33.7 µM (inactive)
17  COc1cc2c(cc1OC)-c1cc3cc(OC)c(OC)cc3c(C)[n+]1CC2.O=C([O-])CS(=O)(=O)O                GI50  > 100 µM (inactive)
18  O=C(O)c1cnc(-n2[nH]c3c(c2=O)CCCC3)[nH]c1=O                GI50  > 100 µM (inactive)
19  COCOC1/C=C/CCCCC2=C(C)C=C(C1)O2 (stereo not given)                GI50  > 100 µM (inactive)
20  CC(=O)OCC1OC(N=[N+]=[N-])C(OC(C)=O)C(OC(C)=O)C1OC1OC(COC(C)=O)C(OC(C)=O)C(OC(C)=O)C1OC(C)=O (stereo not given)                GI50  > 100 µM (inactive)
21  CC(=O)N(C)c1ccc(Nc2cc(C)nc3ccc4nc[nH]c4c23)cc1 [ACODAZOLE HYDROCHLORIDE]                GI50   10.8 µM (inactive)
22  CCCCCCCCCCCCCCCCCCCCCCC(=O)N[C@H]1CCc2cc(OC)c(OC)c(OC)c2-c2ccc(SC)c(=O)cc21                GI50   27.5 µM (inactive)
23  COc1ccc(/N=N/C(=O)NC(CC(C)C)C(=O)NCC(=O)O)cc1 (stereo not given)                GI50   2.94 µM (inactive)
24  CCN1C=C/C(=C\C=C\c2cc[n+](CC)c3ccccc23)c2ccccc21                GI50   5.02 µM (inactive)
25  S=C1SCN(C2CCCCCCCCCCC2)CN1C1CCCCCCCCCCC1                GI50  > 100 µM (inactive)
26  CC1CCC(=O)NCCCCC(=O)N1 (stereo not given)                GI50  > 100 µM (inactive)
27  N#Cc1c(N)nc2c(/N=N\c3ccccc3)c(N)nn2c1Nc1ccccc1                GI50   12.1 µM (inactive)
28  COc1ccc(-n2c(=O)c3nc(S)[nH]c3n(-c3ccc(OC)cc3)c2=S)cc1                GI50  > 100 µM (inactive)
29                           CCOC(CN=C=S)OCC                GI50   > 10 µM (inactive)
30  COc1ccc(/C=C2\CC3C4CC=C5C[C@@H](N6CCCC6)CC[C@]5(C)C4CC[C@]3(C)[C@H]2O)cc1OC (stereo not given in full)                GI50   9.44 µM (inactive)
31   COc1cc(OC)c(/C=C/c2cnc3ccccc3n2)c(OC)c1                GI50   > 10 µM (inactive)
32  CN(C)CCN(C)P12(Oc3ccccc3O1)Oc1c(Cl)c(Cl)c(Cl)c(Cl)c1O2                GI50   50.5 µM (inactive)
33       COc1ccc2c([nH]c3cc(O)c(C)cc32)c1C=O                GI50   > 25 µM (inactive)
34  CCCCN(CCCC)C(=C(C(Cl)=C(Cl)Cl)[N+](=O)[O-])N(CCCC)CCCC                GI50  > 100 µM (inactive)
35  COC(=O)[C@]12CSC[C@H]1C[C@H](c1ccc(N(C)C)cc1)N2                GI50  > 100 µM (inactive)
36  C=C1C(=O)O[C@H]2C[C@@H]1[C@@H](O)[C@H](O)[C@@H](C)CCCC(C)=CCC[C@@]2(C)O                GI50   13.6 µM (inactive)
37  CC1CC(=O)CC[C@@H]1OCc1ccccc1 (stereo not given in full)                GI50  > 100 µM (inactive)
38  O=C1OC(C(O)CO)C(C(O)CO)OC1=O (stereo not given)                GI50   > 10 µM (inactive)
39  C[n+]1c2ccccc2c(C(=O)Nc2ccc(S(=O)(=O)Nc3ccnn3-c3ccccc3)cc2)c2ccccc21                GI50  > 100 µM (inactive)

Data provenance: ChEMBL document CHEMBL1201862
